- Tested on: pathogens of clinical samples
- test name: Molecular phenotypic antimicrobial susceptibility test of clinical samples, extraction DNA purification step prior to PCR (Table 6)
- Assay type: cell-based
- run parameters: S. aureus, clinical sample of r85-r92
measurement label: Molecular Antibiotic Susceptibility Result

CN(C)[C@@H]1C(O)=C(C(N)=O)C(=O)[C@@]2(O)C(O)=C3C(=O)c4c(O)cccc4[C@@](C)(O)[C@H]3C[C@@H]12; Resistant
C[C@H]1COc2c(N3CCN(C)CC3)c(F)cc3c(=O)c(C(=O)O)cn1c23; Resistant
CO[C@@]1(NC(=O)Cc2cccs2)C(=O)N2C(C(=O)O)=C(COC(N)=O)CS[C@@H]21; Resistant
CN[C@H](CC(C)C)C(=O)N[C@H]1C(=O)N[C@@H](CC(N)=O)C(=O)N[C@H]2C(=O)N[C@H]3C(=O)N[C@H](C(=O)N[C@H](C(=O)O)c4cc(O)cc(O)c4-c4cc3ccc4O)[C@H](O)c3ccc(c(Cl)c3)Oc3cc2cc(c3O[C@@H]2O[C@H](CO)[C@@H](O)[C@H](O)[C@H]2O[C@H]2C[C@](C)(N)[C@H](O)[C@H](C)O2)Oc2ccc(cc2Cl)[C@H]1O; Resistant
